This collection of values is drawn from ChEMBL document CHEMBL1144454.

pKi: −log10 of the molar value.
What follows is a record of pKi for Amine oxidase [flavin-containing] B (Bos taurus) (UniProt P56560).

[
  {
    "Compound": "Cn1cccc1C(=O)CN1CCCCC1",
    "pKi": 4.82
  },
  {
    "Compound": "Cn1cccc1C(O)C(c1ccccc1)N1CCCCC1 (single isomer, unassigned; (-))",
    "pKi": 4.76
  },
  {
    "Compound": "Cn1cccc1C(O)C(c1ccccc1)N1CCCCC1 (racemic; form 1)",
    "pKi": 5.04
  },
  {
    "Compound": "Cn1cccc1C(=O)C(c1ccccc1)N1CCCC1 (racemic)",
    "pKi": 3.22
  },
  {
    "Compound": "Cn1cccc1C(O)C(c1ccccc1)N1CCCCC1 (racemic; form 2)",
    "pKi": 3.85
  },
  {
    "Compound": "CN(C)C(C(=O)c1cccn1C)c1ccccc1 (stereo unspecified)",
    "pKi": 3.06
  }
]
